B1: Osa-1-4 twister ribozyme (parent)
chain: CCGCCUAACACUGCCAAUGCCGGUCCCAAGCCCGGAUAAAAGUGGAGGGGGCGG

Variants of: B1
Run Description: self-cleavage, relative activity (ratio to wild type); higher = more cleavage; co-transcriptional
Cut-off 0.2 on self-cleavage, inclusive. At or above means Fulfilled; below means Not fulfilled.

[[record]]
chain = "CCGCCUAACACUGCCAAUGUCGGUCCCAAGCCCGGAUAAAAGUGGAGGCGGCGG"
label_class = "Not fulfilled"

[[record]]
chain = "CCGCCUAACACUGCCAAUCGCGGUCCCAAGCCCGGAUAAAAGUGGAGGGGGCGG"
label_class = "Not fulfilled"

[[record]]
chain = "CCGCCUAACACUGCCAAUGCCGGUCCCAAGCGCGGAUAACAGUGGAGGGGGCGG"
label_class = "Not fulfilled"

[[record]]
chain = "CCGCCUAACACUGCCAAUGCCGGUCCCAAGCCCGGAUAAAAGUGUAGGGGACGG"
label_class = "Not fulfilled"

[[record]]
chain = "CCGCCUAAUACUGCCGAUGCCGGUCCCAAGCCCGGAUAAAAGUGGAGGGGGCGG"
label_class = "Fulfilled"

[[record]]
chain = "CCGCCUAACACUGCCAAUGCCGGGCCCAAGCCCGGCUAAAAGUGGAGGGGGCGG"
label_class = "Not fulfilled"

[[record]]
chain = "CCGCCUAACACUGCCAAUGCCGGUCGCAAGCCCGGAUAAAAGUGGAGGGGGGGG"
label_class = "Not fulfilled"

[[record]]
chain = "CCGCCUAACACUGCCAUUGCCGGUCCCAAGCCCGGAUAAAAGUGGAGGGGGGGG"
label_class = "Fulfilled"

[[record]]
chain = "CCGCCUAUCACUGCCAAUGCCGGUCCCAAGCCCGGAUAAAAGUGGAGGGGGCUG"
label_class = "Not fulfilled"

[[record]]
chain = "CCGCCUAACACUGCCAAUGCCGCUCCCAAGCCCGGAUAAAACUGGAGGGGGCGG"
label_class = "Not fulfilled"

[[record]]
chain = "CCGCCUAACACUGCCAAUGCCCGUCCCAAGCCCGGAUAAAAGUGGAGGGGGCGU"
label_class = "Not fulfilled"

[[record]]
chain = "CCGCCUAACACUGCCAAUGCCGGUCCCAAGCCCGGAUAAAAGUGGAUGGGGCGG"
label_class = "Fulfilled"

[[record]]
chain = "CCGCCUAACUCUGCCAAUGCCGGUCCCAAGCCCGGACAAAAGUGGAGGGGGCGG"
label_class = "Not fulfilled"

[[record]]
chain = "CCGCCUAAGACUGCCAAUGCCGGUCCCAAGCCCGGAUAAAAGUGGAGGGGUCGG"
label_class = "Not fulfilled"

[[record]]
chain = "CCGCCUAACACUGCCAAUGCCGGUCCCAAGCCCGGAUAAAAGUGGAGGGAGCUG"
label_class = "Fulfilled"

[[record]]
chain = "CCGCCUAACACUGCCAGUGCCGGUCCCAAGCUCGGAUAAAAGUGGAGGGGGCGG"
label_class = "Not fulfilled"

[[record]]
chain = "CCGCCUAACACUCCCAAUGCCGGUCCCAUGCCCGGAUAAAAGUGGAGGGGGCGG"
label_class = "Not fulfilled"

[[record]]
chain = "CCGCCUAACACUGCCAAUGCCGGUCCCAAGCCGUGAUAAAAGUGGAGGGGGCGG"
label_class = "Not fulfilled"

[[record]]
chain = "CCGCCUAACACUGCCAAUGCCGGUUCCAAGUCCGGAUAAAAGUGGAGGGGGCGG"
label_class = "Not fulfilled"

[[record]]
chain = "CCGCCUAACACUGCCAAUGCCGAUCCCAAGCCCGGAUAAAAGUGGAGGGGGAGG"
label_class = "Not fulfilled"

[[record]]
chain = "CCGCCUAACCCUGCCAAUGCCGGUCCCAAACCCGGAUAAAAGUGGAGGGGGCGG"
label_class = "Not fulfilled"

[[record]]
chain = "CCGCCUAACACUGCCAAUGACGGUCCCAAGCCCGGAUAAAAGUGGAGUGGGCGG"
label_class = "Not fulfilled"

